Test system: Bacillus thuringiensis
Assay: Antimicrobial activity against Bacillus thuringiensis var. kurstaki BGSC 4D1 by broth dilution technique
Assay type: functional
Conditions: serovar kurstaki
A collection of molecules and their measured MIC
EXPERIMENTAL_ENDPOINT: MIC (µg/mL)

SMILES_RECORD | RESULT_NUMBER
O=C1N/C(=N/c2nsc3ccccc23)S/C1=C\c1ccccc1[N+](=O)[O-] | 3
O=C1N/C(=N\c2nccs2)S/C1=C\c1ccccc1 | 3
COc1ccc(/C=C2\S/C(=N/c3nccs3)NC2=O)cc1 | 3

---

Tested on: Enterococcus faecalis
Experiment: Antimicrobial activity against Streptococcus faecalis by broth dilution technique
Format: functional
A collection of compounds and their measured MIC
EXPERIMENTAL_ENDPOINT: MIC

SMILES_RECORD | EXPERIMENTAL_ENDPOINT | RESULT
O=C1N/C(=N\c2nc3ccccc3s2)S/C1=C\c1ccccc1Cl | MIC | > 100 µg/mL
O=C1N/C(=N\c2nccs2)S/C1=C\c1ccc([N+](=O)[O-])cc1 | MIC | > 100 µg/mL
O=C1N/C(=N\c2nc3ccccc3s2)S/C1=C\c1cccc(Cl)c1 | MIC | > 100 µg/mL

---

Test system: Staphylococcus epidermidis
Test: Antimicrobial activity against penicillin-resistant Staphylococcus epidermidis by broth dilution technique
Type: functional
A collection of molecules and their measured MIC

SMILES_RECORD | MIC
O=C1N/C(=N/c2nsc3ccccc23)S/C1=C\c1ccccc1[N+](=O)[O-] | > 100 µg/mL
O=C1CS/C(=N\c2nsc3ccccc23)N1 | > 100 µg/mL
O=C1N/C(=N/c2nsc3ccccc23)S/C1=C\c1ccc(Cl)cc1 | > 100 µg/mL

---

A collection of compounds and their measured MIC
Test system: Enterococcus faecalis
Assay: Antimicrobial activity against Streptococcus faecalis by broth dilution technique
Format: functional

SMILES_RECORD | MIC
O=C1CS/C(=N\c2nsc3ccccc23)N1 | > 100 µg/mL
O=C1CS/C(=N/c2nc3ccccc3s2)N1 | > 100 µg/mL
O=C1N/C(=N\c2nc3ccccc3s2)S/C1=C\c1cccc([N+](=O)[O-])c1 | > 100 µg/mL
COc1cc(/C=C2\S/C(=N/c3nc4ccccc4s3)NC2=O)ccc1O | > 100 µg/mL
COc1ccc(/C=C2\S/C(=N/c3nccs3)NC2=O)cc1 | > 100 µg/mL

Reference for the values: ChEMBL document CHEMBL1142406
